Data provenance: ChEMBL document CHEMBL5150003

test_system: Plasminogen (Homo sapiens)
Sequence (P00747 97-580 limits assumed): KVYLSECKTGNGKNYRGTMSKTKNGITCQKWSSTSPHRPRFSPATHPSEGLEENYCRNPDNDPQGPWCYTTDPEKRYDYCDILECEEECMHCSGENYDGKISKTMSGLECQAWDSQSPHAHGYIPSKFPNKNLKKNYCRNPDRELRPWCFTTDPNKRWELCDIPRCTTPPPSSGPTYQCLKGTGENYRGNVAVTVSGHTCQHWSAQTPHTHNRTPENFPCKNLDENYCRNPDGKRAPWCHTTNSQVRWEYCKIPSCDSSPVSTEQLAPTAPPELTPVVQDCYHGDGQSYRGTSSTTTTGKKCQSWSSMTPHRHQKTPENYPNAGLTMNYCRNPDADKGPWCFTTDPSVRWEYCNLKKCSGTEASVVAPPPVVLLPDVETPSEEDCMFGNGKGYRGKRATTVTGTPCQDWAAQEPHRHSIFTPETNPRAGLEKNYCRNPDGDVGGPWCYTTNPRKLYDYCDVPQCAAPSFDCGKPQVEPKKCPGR
Sequence (P00747 581-810 limits assumed): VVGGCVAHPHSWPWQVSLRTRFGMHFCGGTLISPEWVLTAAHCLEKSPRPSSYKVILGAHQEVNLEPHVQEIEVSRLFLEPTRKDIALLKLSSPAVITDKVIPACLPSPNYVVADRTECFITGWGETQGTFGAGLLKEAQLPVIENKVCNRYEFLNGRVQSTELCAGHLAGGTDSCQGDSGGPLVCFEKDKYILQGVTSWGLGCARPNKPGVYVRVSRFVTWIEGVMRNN
parameter_measured: Ki

Entry CC(C)(C)[C@H](NC(=O)[C@H](CCCONC(=N)N)NC(=O)Cc1ccc(CNC(=N)N)cc1)C(=O)N[C@@H](CCCONC(=N)N)C(=O)NCc1ccc(C(=N)N)cc1 ; assay system Plasminogen (Homo sapiens); Ki recorded at > 3 µM

* * *

test_system: Furin (Homo sapiens, UniProt P09958)
Sequence (P09958 whole entry): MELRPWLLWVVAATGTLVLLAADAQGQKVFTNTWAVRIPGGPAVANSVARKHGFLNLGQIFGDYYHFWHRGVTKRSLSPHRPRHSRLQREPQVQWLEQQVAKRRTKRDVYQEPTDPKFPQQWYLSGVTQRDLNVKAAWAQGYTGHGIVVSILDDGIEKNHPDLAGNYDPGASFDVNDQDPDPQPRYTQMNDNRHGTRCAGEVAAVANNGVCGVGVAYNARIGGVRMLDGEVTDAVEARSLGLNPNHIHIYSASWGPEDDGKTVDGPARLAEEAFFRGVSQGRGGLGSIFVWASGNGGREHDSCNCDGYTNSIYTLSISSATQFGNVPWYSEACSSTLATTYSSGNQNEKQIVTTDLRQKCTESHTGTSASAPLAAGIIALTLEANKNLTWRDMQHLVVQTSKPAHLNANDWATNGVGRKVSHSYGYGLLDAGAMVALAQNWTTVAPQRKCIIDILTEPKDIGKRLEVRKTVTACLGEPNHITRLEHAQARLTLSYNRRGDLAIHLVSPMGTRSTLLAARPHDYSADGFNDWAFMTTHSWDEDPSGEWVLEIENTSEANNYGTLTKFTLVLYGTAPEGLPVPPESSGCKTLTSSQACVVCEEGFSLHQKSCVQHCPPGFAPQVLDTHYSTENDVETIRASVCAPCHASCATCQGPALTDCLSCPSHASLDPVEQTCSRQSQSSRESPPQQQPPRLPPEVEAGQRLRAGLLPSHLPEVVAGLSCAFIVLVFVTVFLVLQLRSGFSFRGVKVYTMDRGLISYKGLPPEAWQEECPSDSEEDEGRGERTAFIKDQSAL
assay: Inhibition of furin (unknown origin)
Peptide text beside a SMILES is read from it.
A collection of molecules and their measured IC50
Reply with just the number (in nM).

Worked examples follow.
1) CC(C)(C)[C@H](NC(=O)[C@H](CCCNC(=N)N)NC(=O)Cc1ccc(CNC(=N)N)cc1)C(=O)N[C@@H](CCCNC(=N)N)C(=O)NCc1ccc(N)nc1 :: 2.98
2) CC(C)(C)[C@H](NC(=O)[C@H](CCCNC(=N)N)NC(=O)Cc1ccc(CNC(=N)N)cc1)C(=O)N[C@@H](CCCNC(=N)N)C(=O)NCc1ccccc1 :: 0.56
3) CC(=O)N[C@@H](CC(C)C)C(=O)N[C@@H](CC(C)C)C(=O)N[C@@H](CC(C)C)C(=O)N[C@@H](CC(C)C)C(=O)N[C@@H](CCCNC(=N)N)C(=O)N[C@H](C(=O)N[C@@H](CCCCN)C(=O)N[C@@H](CCCNC(=N)N)C(N)=O)C(C)C (Ac-LLLLRVKR-NH2) :: 20
4) CC(C)(C)[C@H](NC(=O)[C@H](CCCNC(=N)N)NC(=O)Cc1ccc(CNC(=N)N)cc1)C(=O)N[C@@H](CCCNC(=N)N)C(=O)NCc1ccc(C(=N)N)c(F)c1 :: 0.56

Now examine the next entry.
Notebook: CC(C)(C)[C@H](NC(=O)[C@H](CCCNC(=N)N)NC(=O)Cc1ccc(CNC(=N)N)cc1)C(=O)N[C@@H](CCCNC(=N)N)C(=O)NCc1ccc(CN)cc1 , IC50 read as 9.53

* * *

assay: Stability in mouse plasma assessed as half-life
Assay type: ADME, cell-free
Numbered stars: 1 amine (or outer) side, 2 acyl side, 3 side chain; on linkers, the order of the positions; unused ones are H or OH. Square brackets hold non-standard residues; d marks the D form. Peptide text beside a SMILES is read from it. * marks the point of attachment. X2 = CC(C(=O)[*:2])n1cc(C(CCCNC(=N)N)N[*:1])nn1; X1 = C[C@@H](O)[C@H](NN(CCCNC(N)N)CN*)C(N)=O; NH(4-amidinobenzyl) = N=C(N)c1ccc(CN*)cc1; X3 = NC(N)=NC/C=C/CN*
# if measured half-life < 3 h: label 1  # else: label 0

Example entries and their recorded answers appear below.
1) CC(C(=O)N[C@@H](C)C(=O)N[C@@H](CCCNC(=N)N)C(=O)N[C@@H](CCCNC(=N)N)C(=O)N[C@@H](CCCNC(=N)N)C(=O)N[C@@H](CCCCN)C(=O)N[C@@H](CCCCN)C(=O)N[C@@H](CCCNC(=N)N)C(=O)N[C@H](C(N)=O)[C@@H](C)O)n1cc(C(CCCNC(=N)N)NC(=O)[C@@H](N)CCCNC(=N)N)nn1 (stereo not given in full) (H-R[X2]ARRRKKRT-NH2) :: label 1
2) CC(=O)N[C@@H](CCCNC(=N)N)C(=O)N[C@@H](C)C(=O)N[C@@H](CCCNC(=N)N)C(=O)N[C@@H](CCCNC(=N)N)C(=O)N[C@@H](CCCNC(=N)N)C(=O)N[C@@H](CCCCN)C(=O)N[C@@H](CCCCN)C(=O)NCN(CCCNC(N)N)N[C@H](C(N)=O)[C@@H](C)O (Ac-RARRRKK-X1) :: label 1
3) CC(=O)N[C@@H](CCCN=C(N)N)C(=O)N[C@@H](C)C(=O)N[C@@H](CCCN=C(N)N)C(=O)N[C@@H](CCCN=C(N)N)C(=O)N[C@@H](CCCN=C(N)N)C(=O)N[C@@H](CCCCN)C(=O)N[C@@H](CCCCN)C(=O)NC/C=C/CN=C(N)N (Ac-RARRRKK-X3) :: label 0
4) CC(=O)NN(CCCNC(=N)N)CC(=O)N[C@@H](C)C(=O)N[C@@H](CCCNC(=N)N)C(=O)N[C@@H](CCCNC(=N)N)C(=O)N[C@@H](CCCNC(=N)N)C(=O)N[C@@H](CCCCN)C(=O)N[C@@H](CCCCN)C(=O)NN(CCCNC(=N)N)CC(=O)N[C@H](C(N)=O)[C@@H](C)O :: label 1

Next, consider the following compound.
Answer whether the compound CC(=O)N[C@@H](CCCNC(=N)N)C(=O)N[C@@H](C)C(=O)N[C@@H](CCCNC(=N)N)C(=O)N[C@@H](CCCNC(=N)N)C(=O)N[C@@H](CCCNC(=N)N)C(=O)N[C@@H](CCCCN)C(=O)N[C@@H](CCCCN)C(=O)NCc1ccc(C(=N)N)cc1 (Ac-RARRRKK-{NH(4-amidinobenzyl)}) has half-life strictly less than 3 h
label 0
